Data origin: patent US20250011272A1

- Test system: pancreatic cancer cell line ASPC-1
- Test summary: MTS cell proliferation assay, ASPC-1
- Format: cell-based
- Experimental conditions: Homo sapiens, ASPC1; ASPC-1, MTS; read-out: IC50, inhibition of proliferation, ASPC-1
pIC50: −log10 of the molar value.
Test readout: pIC50

O=C(O)C1(CCCCCC/C=C\CCCCCCC2(C(=O)OCCc3ccc4ccccc4c3)C=CCC2)C=CCC1 (stereo not shown) | 4.55
COC(=O)c1cc(Cl)c(O)c(S(=O)(=O)Nc2cc(-c3ccccc3)c(F)cc2F)c1 [NDI-091143, reference compound] | 4.08
O=C(O)C1(CCCCCC/C=C\CCCCCCC2(C(=O)O)C=CCC2)C=CCC1 (stereo not shown) | 4.56
O=C(O)C1(CCCCCC/C=C\CCCCCCC2(C(=O)OCCc3ccc(F)cc3)C=CCC2)C=CCC1 (stereo not shown) | 4.53

====

- Tested on: breast cancer cell MCF-7
- Test summary: MTS cell proliferation assay, MCF-7
- Format: cell-based
- Experimental conditions: Homo sapiens, MCF7; MCF-7, MTS; read-out: IC50, inhibition of proliferation, MCF-7
pIC50: −log10 of the molar value.
Test readout: pIC50

O=C(O)C1(CCCCCC/C=C\CCCCCCC2(C(=O)O)C=CCC2)C=CCC1 (stereo not shown) [Compound M5] | 4.50
O=C(O)C1(CCCCCC/C=C\CCCCCCC2(C(=O)OCCc3ccc4ccccc4c3)C=CCC2)C=CCC1 (stereo not shown) [Compound M29] | 5.19
COC(=O)c1cc(Cl)c(O)c(S(=O)(=O)Nc2cc(-c3ccccc3)c(F)cc2F)c1 [NDI-091143, reference compound] | 4.07
O=C(O)C1(CCCCCC/C=C\CCCCCCC2(C(=O)OCCc3ccc(F)cc3)C=CCC2)C=CCC1 (stereo not shown) [Compound M25] | 5.24

====

- Test system: NCI-H358 cells
- Test summary: MTS cell proliferation assay, H358
- Type: cell-based, human
- Experimental conditions: H358, 72 hours, 1% FBS, read-out: IC50, inhibition of proliferation, H358
Test readout: IC50 (µM)

O=C(O)C1(CCCCCCC=CCCCCCCC2(C(=O)OCCc3ccc(Cl)cc3Cl)C=CCC2)C=CCC1 (stereo not shown) | 3.5

====

- System: UniProt:P53396
- Sequence (P53396 whole entry): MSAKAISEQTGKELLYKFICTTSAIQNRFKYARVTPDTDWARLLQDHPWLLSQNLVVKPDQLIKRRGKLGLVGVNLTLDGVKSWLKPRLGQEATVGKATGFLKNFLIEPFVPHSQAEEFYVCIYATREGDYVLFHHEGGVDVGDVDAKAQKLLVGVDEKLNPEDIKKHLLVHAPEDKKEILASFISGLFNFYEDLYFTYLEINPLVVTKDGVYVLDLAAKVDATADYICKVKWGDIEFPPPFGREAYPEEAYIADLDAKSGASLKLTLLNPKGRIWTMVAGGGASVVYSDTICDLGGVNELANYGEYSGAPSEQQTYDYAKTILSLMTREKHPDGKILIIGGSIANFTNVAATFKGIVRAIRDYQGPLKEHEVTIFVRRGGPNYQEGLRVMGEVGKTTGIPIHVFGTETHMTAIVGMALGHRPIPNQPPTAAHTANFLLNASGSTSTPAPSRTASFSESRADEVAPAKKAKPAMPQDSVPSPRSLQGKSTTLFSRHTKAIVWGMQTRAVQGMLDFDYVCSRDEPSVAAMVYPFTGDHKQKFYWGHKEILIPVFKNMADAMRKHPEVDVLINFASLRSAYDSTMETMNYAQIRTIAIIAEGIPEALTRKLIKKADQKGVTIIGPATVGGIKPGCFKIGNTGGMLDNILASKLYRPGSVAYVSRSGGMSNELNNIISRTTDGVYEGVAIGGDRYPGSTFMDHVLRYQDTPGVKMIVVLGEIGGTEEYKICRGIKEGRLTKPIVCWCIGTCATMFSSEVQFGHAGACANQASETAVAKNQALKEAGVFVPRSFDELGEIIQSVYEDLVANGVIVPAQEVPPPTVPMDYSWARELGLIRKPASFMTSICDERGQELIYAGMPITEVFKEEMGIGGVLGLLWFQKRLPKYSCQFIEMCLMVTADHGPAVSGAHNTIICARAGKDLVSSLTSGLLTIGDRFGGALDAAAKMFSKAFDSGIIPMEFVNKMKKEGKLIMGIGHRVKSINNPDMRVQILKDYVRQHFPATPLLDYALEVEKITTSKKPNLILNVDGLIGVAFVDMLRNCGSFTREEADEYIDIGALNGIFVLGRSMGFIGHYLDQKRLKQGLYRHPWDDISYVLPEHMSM
- Test summary: ACLY enzyme activity test (ADP-Glo luminescence)
- Assay type: biochemical
- Experimental conditions: 37° C., 30 minutes
Test readout: IC50 (µM)

CC(C)(CCCCCC/C=C(/CCCCCCC(C)(C)C(=O)O)c1ccc(C(=O)N2CCN(c3ccccn3)CC2)cc1)C(=O)O [Compound M37] | 5.21
COc1ccc(CCOC(=O)C2(CCCCCC/C=C\CCCCCCC3(C(=O)O)C=CCC3)C=CCC2)cc1 (stereo not drawn) [Compound M32] | 4.6
COC(=O)C1(CCCCCC/C=C\CCCCCCC2(C(=O)O)C=CCC2)C=CCC1 (stereo not drawn) [Compound M21] | 3.8
O=C(O)C1(CCCCCC/C=C\CCCCCCC2(C(=O)O)CC=CC2)CC=CC1 [Compound M2] | 2.9
CC(C)(CCCCCCC=C(CCCCCCC(C)(C)C(=O)O)c1ccc(C(=O)N2CCN(c3ccccn3)CC2)cc1)C(=O)O [Compound M36] | 4.57
CC(CCCCCC/C=C\CCCCCCCC(C)(C(=O)O)c1ccccc1)(C(=O)O)c1ccccc1 (stereo not drawn) [Compound M11] | 1.9
CC(CCCC/C=C\CCCCCC(C)(C(=O)O)c1ccccc1)(C(=O)O)c1ccccc1 (stereo not drawn) [Compound M9] | 11.2
O=C(O)C1(CCCCCC/C=C\CCCCCCC2(C(=O)OCCc3ccccc3)C=CCC2)C=CCC1 (stereo not drawn) [Compound M27] | 7.7
Cc1ncsc1-c1ccc([C@H](C)NC(=O)[C@@H]2C[C@@H](O)CN2C(=O)[C@@H](NC(=O)C(C)(C)CCCCCC/C=C\CCCCCCC(C)(C)C(=O)O)C(C)(C)C)cc1 [Compound M34] | 10.2

====

- System: UniProt P53396
- Test summary: ACLY enzyme activity test (ADP-Glo luminescence)
- Type: biochemical
- Experimental conditions: 37° C., 30 minutes
So basically, if IC50 comes in under 3 µM it's T, and if it's 3 µM or more it's F.

O=C(O)C1(CCCCCC/C=C\CCCCCCCC2(C(=O)O)C=CCC2)C=CCC1 (stereo not shown) | T
O=C(O)C1(CCCCCCC(=C(CCCCCCC2(C(=O)O)C=CCC2)c2ccccc2)c2ccccc2)C=CCC1 (stereo not shown) | T
O=C(O)C1(CCCCCC/C=C\CCCCCCC2(C(=O)OCCc3ccc4ccccc4c3)C=CCC2)C=CCC1 (stereo not shown) | F
O=C(O)C1(CCCCCC/C=C\CCCCCCC2(C(=O)OCCCc3ccc(Cl)cc3Cl)C=CCC2)C=CCC1 (stereo not shown) | F
O=C(O)C1(CCCCCC/C=C\CCCCCCC2(C(=O)OCCc3ccc(Cl)cc3)C=CCC2)C=CCC1 (stereo not shown) | F
COC(=O)c1cc(Cl)c(O)c(S(=O)(=O)Nc2cc(-c3ccccc3)c(F)cc2F)c1 [NDI-091143, reference compound] | T
CCOC(=O)C1(CCCCCC/C=C\CCCCCCC2(C(=O)O)C=CCC2)C=CCC1 (stereo not shown) | F
CC(CCCCCCC=CCCCCCCC(C)(C(=O)O)c1ccccc1)(C(=O)O)c1ccccc1 (stereo not shown) | T
CC[C@H](C)n1cc(C)c2c(C(=O)NCc3c(C)cc(C)[nH]c3=O)cc(-c3ccc(N4CCN(C(=O)CCCSC(=O)C(C)(C)CCCCC/C=C\CCCCCC(C)(C)C(=O)O)CC4)nc3)cc21 | F
O=C(O)C1(CCCCCC/C=C\CCCCCCC2(C(=O)OCCc3ccc(F)cc3)C=CCC2)C=CCC1 (stereo not shown) | F
